Value source: patent US20230002367A1

Target: SMARCA2 (Homo sapiens)
Construct: endogenous in cells
Sequence (P51531 whole entry): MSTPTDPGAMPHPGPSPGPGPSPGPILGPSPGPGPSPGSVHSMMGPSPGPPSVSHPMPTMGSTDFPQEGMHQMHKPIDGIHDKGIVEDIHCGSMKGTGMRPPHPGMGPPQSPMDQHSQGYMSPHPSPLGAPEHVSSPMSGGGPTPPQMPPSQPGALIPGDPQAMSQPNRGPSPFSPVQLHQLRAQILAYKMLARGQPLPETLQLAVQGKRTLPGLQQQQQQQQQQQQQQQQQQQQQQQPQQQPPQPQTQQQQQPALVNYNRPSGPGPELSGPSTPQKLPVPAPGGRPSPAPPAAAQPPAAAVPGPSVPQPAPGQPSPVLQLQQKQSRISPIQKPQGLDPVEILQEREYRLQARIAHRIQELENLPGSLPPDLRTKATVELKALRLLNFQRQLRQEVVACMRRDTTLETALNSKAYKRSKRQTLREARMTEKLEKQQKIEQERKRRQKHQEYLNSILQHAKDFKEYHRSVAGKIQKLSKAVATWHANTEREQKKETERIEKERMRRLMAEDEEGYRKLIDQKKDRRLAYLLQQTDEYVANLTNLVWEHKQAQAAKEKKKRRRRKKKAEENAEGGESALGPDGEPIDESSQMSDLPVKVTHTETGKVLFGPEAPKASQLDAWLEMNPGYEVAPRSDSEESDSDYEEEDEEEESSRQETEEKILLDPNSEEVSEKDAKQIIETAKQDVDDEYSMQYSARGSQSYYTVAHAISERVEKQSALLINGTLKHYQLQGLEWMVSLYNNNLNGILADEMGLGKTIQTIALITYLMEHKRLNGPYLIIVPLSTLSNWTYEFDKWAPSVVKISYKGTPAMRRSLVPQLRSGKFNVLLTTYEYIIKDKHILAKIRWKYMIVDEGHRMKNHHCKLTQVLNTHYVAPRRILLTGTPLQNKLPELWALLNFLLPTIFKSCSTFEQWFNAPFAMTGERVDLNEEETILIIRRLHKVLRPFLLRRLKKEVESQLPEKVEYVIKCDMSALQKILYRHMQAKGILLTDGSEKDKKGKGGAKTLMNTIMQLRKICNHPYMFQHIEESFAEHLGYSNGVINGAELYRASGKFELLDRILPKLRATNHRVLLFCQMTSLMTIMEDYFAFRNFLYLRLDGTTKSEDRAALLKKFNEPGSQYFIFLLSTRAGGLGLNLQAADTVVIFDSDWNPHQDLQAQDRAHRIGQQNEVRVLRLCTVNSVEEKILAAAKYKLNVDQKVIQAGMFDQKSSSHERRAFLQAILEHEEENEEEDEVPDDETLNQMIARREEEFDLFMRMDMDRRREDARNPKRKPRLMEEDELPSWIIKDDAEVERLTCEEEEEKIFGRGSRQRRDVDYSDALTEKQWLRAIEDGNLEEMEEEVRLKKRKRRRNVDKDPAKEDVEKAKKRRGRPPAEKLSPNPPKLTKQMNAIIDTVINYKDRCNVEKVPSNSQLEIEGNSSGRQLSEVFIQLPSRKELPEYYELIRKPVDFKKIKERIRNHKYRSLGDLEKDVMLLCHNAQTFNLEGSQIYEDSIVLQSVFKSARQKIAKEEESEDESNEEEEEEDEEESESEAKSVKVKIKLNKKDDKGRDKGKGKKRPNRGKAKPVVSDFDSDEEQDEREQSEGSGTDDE
Experiment: SMARCA2 HiBiT degradation assay (cellular)
Format: cell-based
Details: SMARCA2 HiBiT cells, luminescence readout, 11-point titration from 10 μM, 6 hours or 16 hours; read-out: HiBit A549 SMARCA2 IP
Using DC50 as the sorting value, the categories are bin 1 (below 500 nM), bin 2 (500 nM to below 1000 nM), bin 3 (1000 nM or more)

- compound: "Cc1ncsc1-c1ccc(CNC(=O)[C@@H]2C[C@@H](O)CN2C(=O)[C@@H](NC(=O)CCCCCCCCC(=O)N2CCN(c3cc(-c4ccccc4O)nnc3N)CC23CC3)C(C)(C)C)cc1"
  class.label: "bin 2"
- compound: "Cc1ncsc1-c1ccc([C@H](C)NC(=O)[C@@H]2C[C@@H](O)CN2C(=O)[C@@H](NC(=O)CCCCCCCCC(=O)N2CCN(CCOc3ccc(N4CCCC(Oc5cc(-c6ccccc6O)nnc5N)C4)cc3)CC2)C(C)(C)C)cc1 (mixture of isomers)"
  class.label: "bin 1"
- compound: "Cc1ncsc1-c1ccc([C@H](C)NC(=O)[C@@H]2C[C@@H](O)CN2C(=O)[C@@H](NC(=O)CCOCCOCCC(=O)N2CCN(c3ccc(N4CCCC(Oc5cc(-c6ccccc6O)nnc5N)C4)cc3)CC2)C(C)(C)C)cc1 (mixture of isomers)"
  class.label: "bin 3"

For this compound, which bin applies? Cc1ncsc1-c1ccc([C@H](C)NC(=O)[C@@H]2C[C@@H](O)CN2C(=O)[C@@H](NC(=O)CCCCCCCCCC(=O)N2CCN(CCOc3cccc(N4C5CCC4CN(c4cc(-c6ccccc6O)nnc4N)C5)c3)CC2)C(C)C)cc1
bin 1

For this compound, which bin applies? Cc1ncsc1-c1ccc(CNC(=O)[C@@H]2C[C@@H](O)CN2C(=O)[C@@H](NC(=O)CCCCCCCCCC(=O)N2CCN(C(=O)c3cccc(CN4C5CCC4CN(c4cc(-c6ccccc6O)nnc4N)C5)c3)CC2)C(C)(C)C)cc1
bin 2
